Biological target: SIRT1 (Homo sapiens, UniProt Q96EB6)
Test: Mass spectrometry based assay to identify modulators of SIRT1 activity (deacetylation of p53-based acetylated peptide substrate)
Format: biochemical
Settings: SIRT1 activation

{"columns": ["smiles.notation", "study.system", "EC1.5"],
 "data": [
  ["CC1(C)CN(C(=O)Nc2cncc(F)c2)c2nc(-c3cccc(Cl)c3)ccc2O1", "SIRT1 (Homo sapiens, UniProt Q96EB6)", "A (EC1.5<1.0 μM)"],
  ["O=C(Nc1ccncc1)N1CCCc2ccc(-c3cccc(F)c3)nc21", "SIRT1 (Homo sapiens, UniProt Q96EB6)", "A (EC1.5<1.0 μM)"],
  ["Cc1cc(NC(=O)N2CCCOc3ccc(-c4cccc(Cl)c4)nc32)cc(C)n1", "SIRT1 (Homo sapiens, UniProt Q96EB6)", "A (EC1.5<1.0 μM)"],
  ["O=C(Nc1cccc(N2CCOCC2)n1)N1CCOc2ccc(-c3cccc(C(F)(F)F)c3)nc21", "SIRT1 (Homo sapiens, UniProt Q96EB6)", "A (EC1.5<1.0 μM)"],
  ["O=C(Nc1ccccn1)N1CCCc2ccc(-c3cccc(F)c3)nc21", "SIRT1 (Homo sapiens, UniProt Q96EB6)", "A (EC1.5<1.0 μM)"],
  ["CN1CCN(C(=O)Nc2ccncn2)c2nc(-c3cccc(C(F)(F)F)c3)ccc21", "SIRT1 (Homo sapiens, UniProt Q96EB6)", "A (EC1.5<1.0 μM)"]
]}

----------
Recorded EC1.5 (concentration giving 1.5-fold activation) by entry
Target: SIRT1 (Homo sapiens, UniProt Q96EB6)
Experiment: Mass spectrometry based assay to identify modulators of SIRT1 activity (deacetylation of p53-based acetylated peptide substrate)
Format: biochemical
experimental.endpoint: EC1.5 (concentration giving 1.5-fold activation)

{"columns": ["compound", "reported"],
 "data": [
  ["O=C(Nc1cccc(N2CC3(COC3)C2)n1)N1CCc2ccc(-c3cccc(C(F)(F)F)c3)nc21", "< 1000 nM"],
  ["O=C(Nc1ccnc2cccnc12)N1CCCOc2ccc(-c3cccc(Cl)c3)nc21", "1000 to 25000 nM"],
  ["CC1CCN(C(=O)Nc2cccc(OC[C@@H](O)CO)n2)c2nc(-c3cccc(C(F)(F)F)c3)ccc21 (some centres unmarked)", "< 1000 nM"],
  ["COc1cc(NC(=O)N2CCCOc3ccc(-c4cccc(Cl)c4)nc32)ccn1", "< 1000 nM"],
  ["Cc1cc(NC(=O)N2CCCC(=O)c3ccc(-c4cccc(C(F)(F)F)c4)nc32)ccn1", "< 1000 nM"],
  ["CC1CCN(C(=O)Nc2ccncc2)c2nc(-c3cccc(C(F)(F)F)c3)ccc21 (centres unmarked)", "< 1000 nM"],
  ["COc1cc(NC(=O)N2CCCOc3ccc(-c4cccc(Cl)c4)nc32)ncn1", "< 1000 nM"],
  ["O=C(Nc1ccnc(OC[C@H](O)CO)c1)N1CCCOc2ccc(-c3cccc(Cl)c3)nc21", "1000 to 25000 nM"]
]}

----------
Target: SIRT1 (Homo sapiens)
Sequence (Q96EB6 1-747): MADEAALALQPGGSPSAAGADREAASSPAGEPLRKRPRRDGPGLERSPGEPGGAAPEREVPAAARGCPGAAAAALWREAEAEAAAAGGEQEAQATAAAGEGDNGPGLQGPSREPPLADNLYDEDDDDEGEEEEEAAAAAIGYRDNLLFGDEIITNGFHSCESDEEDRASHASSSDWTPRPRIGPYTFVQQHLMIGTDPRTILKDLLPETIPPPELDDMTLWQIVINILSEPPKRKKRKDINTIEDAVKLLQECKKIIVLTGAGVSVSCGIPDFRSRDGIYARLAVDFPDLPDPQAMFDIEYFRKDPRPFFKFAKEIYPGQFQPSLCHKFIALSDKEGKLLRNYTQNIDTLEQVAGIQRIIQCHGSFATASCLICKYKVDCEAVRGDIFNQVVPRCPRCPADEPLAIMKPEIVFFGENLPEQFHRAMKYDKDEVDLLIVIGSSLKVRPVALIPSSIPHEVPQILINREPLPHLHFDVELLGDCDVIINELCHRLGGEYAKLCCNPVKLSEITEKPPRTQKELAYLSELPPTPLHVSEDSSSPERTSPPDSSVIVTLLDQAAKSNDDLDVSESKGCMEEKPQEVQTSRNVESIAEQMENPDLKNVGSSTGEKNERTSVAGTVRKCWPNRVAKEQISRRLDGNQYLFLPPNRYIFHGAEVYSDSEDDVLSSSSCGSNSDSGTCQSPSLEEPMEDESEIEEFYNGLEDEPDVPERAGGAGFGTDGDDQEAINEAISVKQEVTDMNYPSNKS
Assay: Mass spectrometry based assay to identify modulators of SIRT1 activity (deacetylation of p53-based acetylated peptide substrate)
Assay type: biochemical
experimental.endpoint: EC1.5 (concentration giving 1.5-fold activation)

{"columns": ["compound", "study.system", "reported"],
 "data": [
  ["O=C(Nc1ccnc(N2CCC2)c1)N1CCOc2cnc(-c3cccc(C(F)(F)F)c3)nc21 [Compound 713]", "SIRT1 (Homo sapiens)", "< 1 µM"],
  ["O=C1CCCN(C(=O)Nc2cccnc2)c2nc(-c3cccc(C(F)(F)F)c3)ccc21 [Compound 829]", "SIRT1 (Homo sapiens)", "1 to 25 µM"],
  ["O=C(Nc1ccccn1)N1CCC(F)(F)c2ccc(-c3cccc(C(F)(F)F)c3)nc21 [Compound 814]", "SIRT1 (Homo sapiens)", "> 25 µM"],
  ["CCN1C(=O)CCN(C(=O)Nc2ccncn2)c2nc(-c3cccc(Cl)c3)ccc21 [Compound 775]", "SIRT1 (Homo sapiens)", "> 25 µM"],
  ["Cc1cc(NC(=O)N2CCCC(F)(F)c3ccc(-c4cccc(Cl)c4)nc32)cc(C)n1 [Compound 772]", "SIRT1 (Homo sapiens)", "1 to 25 µM"],
  ["O=C(Nc1ccc(F)cn1)N1CCCOc2ccc(-c3cccc(Cl)c3)nc21 [Compound 762]", "SIRT1 (Homo sapiens)", "1 to 25 µM"],
  ["O=C(Nc1ccncn1)N1CCOc2cnc(-c3cccc(C(F)(F)F)c3)nc21 [Compound 714]", "SIRT1 (Homo sapiens)", "1 to 25 µM"],
  ["Cc1cc(OCC(O)CO)nc(NC(=O)N2CCC(C)(C)c3ccc(-c4cccc(C(F)(F)F)c4)nc32)n1 (centres unmarked) [Compound 844]", "SIRT1 (Homo sapiens)", "1 to 25 µM"]
]}

----------
Biological target: SIRT1 (Homo sapiens, UniProt Q96EB6)
Assay: Mass spectrometry based assay to identify modulators of SIRT1 activity (deacetylation of p53-based acetylated peptide substrate)
Format: biochemical
Settings: 25 min, SIRT1 activation, read-out: % FOLD ACT. (percent maximum fold activation)

{"columns": ["compound", "Emax"],
 "data": [
  ["COc1nccc(NC(=O)N2CCCCc3ccc(-c4cccc(C(F)(F)F)c4)nc32)n1 [Compound 811]", "≤ 200%"],
  ["CCN1C(=O)CCN(C(=O)Nc2ccnc(OC)n2)c2nc(-c3cccc(Cl)c3)ccc21 [Compound 792]", "≤ 200%"],
  ["O=C(c1cccc(OCC(O)CO)c1)N1CCCc2ccc(-c3cccc(C(F)(F)F)c3)nc21 (stereo not drawn) [Compound 642]", "≤ 200%"],
  ["COc1cc(NC(=O)N2CCCOc3ccc(-c4cccc(Cl)c4)nc32)ncn1 [Compound 872]", "> 200%"],
  ["Cc1csc(NC(=O)N2CC(C)(C)Oc3ccc(-c4cccc(N5CC[C@@H](F)C5)c4)nc32)n1 [Compound 707]", "> 200%"],
  ["CC1(C)CN(C(=O)Nc2ccncc2)c2nc(-c3cccc(F)c3)ccc2O1 [Compound 561]", "> 200%"],
  ["O=C(Nc1ccnc(N2CCC2)c1)N1CCOc2ccc(-c3cccc(C(F)(F)F)c3)nc21 [Compound 513]", "> 200%"],
  ["O=C(Nc1ccncn1)N1CCOc2ccc(-c3cccc(C(F)(F)F)c3)nc21 [Compound 503]", "> 200%"],
  ["Cc1cc(NC(=O)N2CCOc3ncc(-c4cccc(C(F)(F)F)c4)nc32)cc(C)n1 [Compound 726]", "> 200%"],
  ["Cc1csc(NC(=O)N2CC(C)(C)Oc3ccc(-c4cccc(F)c4)nc32)n1 [Compound 622]", "> 200%"],
  ["O=C(Nc1ccncc1)N1CCOc2ccc(-c3ccccc3C(F)(F)F)nc21 [Compound 546]", "> 200%"],
  ["Cc1cncc(NC(=O)N2CCCOc3ccc(-c4ccnc(C)c4)nc32)c1 [Compound 655]", "≤ 200%"],
  ["CN1CCN(C(=O)Nc2cncnc2)c2nc(-c3cccc(C(F)(F)F)c3)ccc21 [Compound 536]", "> 200%"],
  ["O=C(Nc1ccc(F)cn1)N1CCCCc2ccc(-c3cccc(C(F)(F)F)c3)nc21 [Compound 816]", "≤ 200%"],
  ["O=C(Nc1ccccn1)N1CCCc2ccc(-c3cccc(C(F)(F)F)c3)nc21 [Compound 646]", "> 200%"],
  ["Cc1cc(-c2cccc(Cl)c2)nc2c1OCCN2C(=O)Nc1ccncn1 [Compound 685]", "> 200%"],
  ["Cc1cc(NC(=O)N2CC(C)(C)Oc3ccc(-c4cccc(N5CC[C@H](F)C5)c4)nc32)cc(C)n1 [Compound 658]", "> 200%"],
  ["CC1CCN(C(=O)Nc2ncccc2F)c2nc(-c3cccc(C(F)(F)F)c3)ccc21 (stereo not drawn) [Compound 803]", "> 200%"],
  ["O=C(Nc1ncccc1F)N1CCC(F)(F)c2ccc(-c3cccc(C(F)(F)F)c3)nc21 [Compound 822]", "≤ 200%"],
  ["CC1CCN(C(=O)Nc2ccncc2F)c2nc(-c3cccc(C(F)(F)F)c3)ccc21 (stereo not drawn) [Compound 804]", "> 200%"],
  ["Cc1cncc(NC(=O)N2CCOc3c(C)cc(-c4cccc(C(F)(F)F)c4)nc32)c1 [Compound 670]", "> 200%"],
  ["CC1(C)CCN(C(=O)Nc2ccncc2F)c2nc(-c3cccc(C(F)(F)F)c3)ccc21 [Compound 847]", "≤ 200%"],
  ["CN1C(=O)CN(C(=O)Nc2ncco2)c2nc(-c3cccc(C(F)(F)F)c3)ccc21 [Compound 523]", "≤ 200%"],
  ["COc1nccc(NC(=O)N2CCCOc3ccc(-c4cccc(Cl)c4)nc32)n1 [Compound 854]", "> 200%"],
  ["Cc1cc(NC(=O)N2CCOc3c(N4CCOCC4)nc(-c4cccc(F)c4)nc32)cc(C)n1 [Compound 739]", "≤ 200%"],
  ["Cc1csc(NC(=O)N2CCN(C)c3ccc(-c4cccc(C(F)(F)F)c4)nc32)n1 [Compound 533]", "> 200%"],
  ["O=C(Nc1ccnc(N2CCC2)c1)N1CCCc2ccc(-c3cccc(Cl)c3)nc21 [Compound 617]", "> 200%"],
  ["Cc1cc(NC(=O)N2CCCOc3ccc(-c4cccc(Cl)c4)nc32)cc(C)n1 [Compound 626]", "> 200%"],
  ["O=C(Nc1cccc(CN2CCOCC2)n1)N1CCOc2ccc(-c3cccc(C(F)(F)F)c3)nc21 [Compound 510]", "> 200%"],
  ["Cc1csc(NC(=O)N2CCC(C)(C)c3ccc(-c4cccc(C(F)(F)F)c4)nc32)n1 [Compound 839]", "> 200%"],
  ["CN1C(=O)CN(C(=O)Nc2ccncc2)c2nc(-c3cccc(C(F)(F)F)c3)ccc21 [Compound 525]", "> 200%"],
  ["Cc1cncc(NC(=O)N2CCCOc3ccc(-c4cccc(Cl)c4)nc32)c1 [Compound 598]", "> 200%"],
  ["CCN1C(=O)CCN(C(=O)Nc2ccc(F)cn2)c2nc(-c3cccc(Cl)c3)ccc21 [Compound 791]", "≤ 200%"]
]}
